# System: MES-SA
# measurement description: Ability to inhibit growth of doxorubicin-resistant (MES-SA/DOX) uterine sarcoma cell line was determined in an in vitro MTT assay.
# Type: functional, cell-based
# condition: Homo sapiens
Assignment: determine reported pIC50 for the given molecules.
Answers are plain numbers, as −log10 of the molar value.

Solved entries (count: 4):
- COc1cccc2c1C(=O)c1c(O)c3c(c(O)c1C2=O)C[C@](O)(C(=O)CO)C[C@@H]3OC1CC(NC(=O)N(CCCl)N=O)C(O)C(C)O1 (stereo not given in full): 5.11
- COc1cccc2c1C(=O)c1c(O)c3c(c(O)c1C2=O)C[C@](O)(C(=O)CO)C[C@@H]3OC1CC(NC(=O)c2ccc(S(=O)(=O)F)cc2)C(O)C(C)O1 (stereo not given in full): 5.16
- COc1cccc2c1C(=O)c1c(O)c3c(c(O)c1C2=O)C[C@](O)(C(=O)CO)C[C@@H]3OC1CC(NC(=O)CBr)C(O)C(C)O1 (stereo not given in full): 6.10
- COc1cccc2c1C(=O)c1c(O)c3c(c(O)c1C2=O)C[C@](O)(C(=O)CO)C[C@@H]3OC1CC(NC(=O)CCl)C(O)C(C)O1 (stereo not given in full): 5.57

Request: What measured pIC50 goes with "COc1cccc2c1C(=O)c1c(O)c3c(c(O)c1C2=O)C[C@@](O)(C(=O)CO)C[C@@H]3O[C@H]1C[C@H](N)[C@H](O)[C@H](C)O1" ?
Response: 5.38

* * *

Exercise: state measured pIC50 for each of the compounds provided.
# Test system: KBM-3 cell line
# measurement description: Ability to inhibit growth of human myelogenous leukemic cell line KBM-3 was determined in an in vitro clonogenic assay.
Give bare numbers, as −log10 of the molar value.

Use the examples below as a reference point.
- COc1cccc2c1C(=O)c1c(O)c3c(c(O)c1C2=O)C[C@](O)(C(=O)CO)C[C@@H]3OC1CC(NC(=O)CBr)C(O)C(C)O1 (stereo partly drawn): 6.85
- COc1cccc2c1C(=O)c1c(O)c3c(c(O)c1C2=O)C[C@@](O)(C(=O)CO)C[C@@H]3O[C@H]1C[C@H](N)[C@H](O)[C@H](C)O1: 7.59

Request: For the compound shown here, COc1cccc2c1C(=O)c1c(O)c3c(c(O)c1C2=O)C[C@](O)(C(=O)CO)C[C@@H]3OC1CC(NC(=O)N(CCCl)N=O)C(O)C(C)O1 (stereo partly drawn) , give the reported pIC50.
Response: 6.68

* * *

Hi there, I'd appreciate the recorded IC50 for every entry that follows.
# Tested on: L1210
# measurement description: Ability to inhibit growth of L1210 leukemic cell lines was determined in an in vitro MTT assay.
# Format: functional, cell-based
# condition: Mus musculus
One number for each entry, in nM.

• COc1cccc2c1C(=O)c1c(O)c3c(c(O)c1C2=O)C[C@](O)(C(=O)CO)C[C@@H]3OC1CC(NC(=O)N(CCCl)N=O)C(O)C(C)O1 (stereo not given in full) = 2900

Report IC50 for every entry below.
1. COc1cccc2c1C(=O)c1c(O)c3c(c(O)c1C2=O)C[C@](O)(C(=O)CO)C[C@@H]3OC1CC(NC(=O)c2ccc(S(=O)(=O)F)cc2)C(O)C(C)O1 (stereo not given in full)
2. COc1cccc2c1C(=O)c1c(O)c3c(c(O)c1C2=O)C[C@](O)(C(=O)CO)C[C@@H]3OC1CC(NC(=O)CCl)C(O)C(C)O1 (stereo not given in full)

Response:
1. 6900
2. 2100

Below are 2 molecules. Give each one its IC50.
1. COc1cccc2c1C(=O)c1c(O)c3c(c(O)c1C2=O)C[C@](O)(C(=O)CO)C[C@@H]3OC1CC(NC(=O)CBr)C(O)C(C)O1 (stereo not given in full)
2. COc1cccc2c1C(=O)c1c(O)c3c(c(O)c1C2=O)C[C@@](O)(C(=O)CO)C[C@@H]3O[C@H]1C[C@H](N)[C@H](O)[C@H](C)O1

Response:
1: 2100; 2: 200
